- Test system: normal primary NK cells, pool 2 (3 donors) (IL-2 2.5 ng/mL)
- assay text: percent inhibition of viability; higher = more inhibition
- assay context: 72 h; 1 nM
Each entry below lists one item and its recorded percent inhibition of viability value.

Solved entries:
{"compound": "NC(=O)Nc1cc(-c2cccc(F)c2)sc1C(=O)N[C@H]1CCCNC1 [AZD7762] (max concentration tested 1000 nM)", "percent inhibition of viability": "11.4%"}
{"compound": "Cn1cc(C2=C(c3cn(C4CCN(Cc5ccccn5)CC4)c4ccccc34)C(=O)NC2=O)c2ccccc21 [Enzastaurin] (max concentration tested 10000 nM)", "percent inhibition of viability": "-9.8%"}
{"compound": "CO[C@H]1C[C@@H]2CC[C@@H](C)[C@@](O)(O2)C(=O)C(=O)N2CCCC[C@H]2C(=O)O[C@H]([C@H](C)C[C@@H]2CC[C@@H](OCCO)[C@H](OC)C2)CC(=O)[C@H](C)/C=C(\\C)[C@@H](O)[C@@H](OC)C(=O)[C@H](C)C[C@H](C)/C=C/C=C/C=C/1C [Everolimus] (max concentration tested 100 nM)", "percent inhibition of viability": "0.82%"}
{"compound": "CCN(CC)CCOc1ccc(C(=C(Cl)c2ccccc2)c2ccccc2)cc1 [Clomifene] (max concentration tested 10000 nM)", "percent inhibition of viability": "-3.18%"}
{"compound": "COc1cc([C@@H]2c3cc4c(cc3[C@@H](O[C@@H]3O[C@@H]5CO[C@@H](C)O[C@H]5[C@H](O)[C@H]3O)[C@H]3COC(=O)[C@H]23)OCO4)cc(OC)c1O [Etoposide] (max concentration tested 10000 nM)", "percent inhibition of viability": "-2.19%"}

q: # query: percent inhibition of viability | item Cn1c(Nc2ccc(C(F)(F)F)cc2)nc2cc(Oc3ccnc(-c4ncc(C(F)(F)F)[nH]4)c3)ccc21 [RAF265] (max concentration tested 1000 nM) | system: normal primary NK cells, pool 2 (3 donors) (IL-2 2.5 ng/mL)
a: 7.1%

q: # query: percent inhibition of viability | item c1ccc(Cn2c(-c3ccc(OC[C@H](C4CCNCC4)n4c(-c5ccccc5)nc5ccccc54)cc3)nc3ccccc32)cc1 [deltarasin] (max concentration tested 10000 nM) | system: normal primary NK cells, pool 2 (3 donors) (IL-2 2.5 ng/mL)
a: 3.52%

q: # query: percent inhibition of viability | item Cc1cc(Nc2nc(N[C@@H](C)c3ncc(F)cn3)ncc2Cl)[nH]n1 [AZD1480] (max concentration tested 1000 nM) | system: normal primary NK cells, pool 2 (3 donors) (IL-2 2.5 ng/mL)
a: -7.23%

q: # query: percent inhibition of viability | item C[C@]12CC[C@@H]3c4ccc(O)cc4C[C@@H](CCCCCCCCC[S+]([O-])CCCC(F)(F)C(F)(F)F)[C@H]3[C@@H]1CC[C@@H]2O (stereo partly specified) [Fulvestrant] (max concentration tested 1000 nM) | system: normal primary NK cells, pool 2 (3 donors) (IL-2 2.5 ng/mL)
a: -4.87%

q: # query: percent inhibition of viability | item CC(C)N(C[C@H]1O[C@@H](n2cnc3c(N)ncnc32)[C@H](O)[C@@H]1O)[C@H]1C[C@@H](CCc2nc3cc(C(C)(C)C)ccc3[nH]2)C1 [Pinometostat] (max concentration tested 1000 nM) | system: normal primary NK cells, pool 2 (3 donors) (IL-2 2.5 ng/mL)
a: 6.92%

q: # query: percent inhibition of viability | item CN[C@@H](C)C(=O)N[C@H]1CN(C(=O)CC(C)C)CC[C@H]2CC[C@@H](C(=O)NC(c3ccccc3)c3ccccc3)N2C1=O [AT-406] (max concentration tested 10000 nM) | system: normal primary NK cells, pool 2 (3 donors) (IL-2 2.5 ng/mL)
a: -16.6%

q: # query: percent inhibition of viability | item Cc1c(CN2CCN(C(=O)[C@H](C)O)CC2)sc2c(N3CCOCC3)nc(-c3cnc(N)nc3)nc12 [Apitolisib] (max concentration tested 10000 nM) | system: normal primary NK cells, pool 2 (3 donors) (IL-2 2.5 ng/mL)
a: -13.9%

q: # query: percent inhibition of viability | item N#CC1(c2ccc(NC(=O)c3cccnc3NCc3ccncc3)cc2)CCCC1 [Apatinib] (max concentration tested 10000 nM) | system: normal primary NK cells, pool 2 (3 donors) (IL-2 2.5 ng/mL)
a: -4.33%

q: # query: percent inhibition of viability | item C[C@]12O[C@H](C[C@]1(O)CO)n1c3ccccc3c3c4c(c5c6ccccc6n2c5c31)CNC4=O [Lestaurtinib] (max concentration tested 1000 nM) | system: normal primary NK cells, pool 2 (3 donors) (IL-2 2.5 ng/mL)
a: 3.05%

q: # query: percent inhibition of viability | item O=P1(NCCCl)OCCCN1CCCl (stereo unspecified) [Ifosfamide] (max concentration tested 10000 nM) | system: normal primary NK cells, pool 2 (3 donors) (IL-2 2.5 ng/mL)
a: -7.91%

q: # query: percent inhibition of viability | item CCC(C)(C)C(=O)O[C@H]1C[C@@H](C)C=C2C=C[C@H](C)[C@H](CC[C@@H]3C[C@@H](O)CC(=O)O3)[C@H]21 [Simvastatin] (max concentration tested 10000 nM) | system: normal primary NK cells, pool 2 (3 donors) (IL-2 2.5 ng/mL)
a: -9.03%

----------
- System: KAI3 (IL-2 2.5 ng/mL)
- assay text: percent inhibition of viability; higher = more inhibition
- assay context: 72 h; 1000 nM
Under this convention, Met denotes percent inhibition of viability strictly below 40% and Not met denotes percent inhibition of viability at or above 40%.

{"compound": "O=C(CCCCCCC(=O)Nc1ccc([C@H]2O[C@@H](CSc3nc(-c4ccccc4)c(-c4ccccc4)o3)C[C@@H](c3ccc(CO)cc3)O2)cc1)NO [Tubacin] (max concentration tested 10000 nM)", "answer label": "Met"}

q: Does this compound meet the criterion percent inhibition of viability < 40%? Cc1ccc(C(=O)Nc2ccc(CN3CCN(C)CC3)c(C(F)(F)F)c2)cc1C#Cc1cnc2cccnn12 [Ponatinib] (max concentration tested 1000 nM)
a: Not met

q: Does this compound meet the criterion percent inhibition of viability < 40%? Cn1ncnc1[C@H]1c2n[nH]c(=O)c3cc(F)cc(c23)N[C@@H]1c1ccc(F)cc1 [Talazoparib] (max concentration tested 1000 nM)
a: Not met

q: Does this compound meet the criterion percent inhibition of viability < 40%? N#CCNC(=O)c1ccc(-c2ccnc(Nc3ccc(N4CCOCC4)cc3)n2)cc1 [Momelotinib] (max concentration tested 10000 nM)
a: Not met

q: Does this compound meet the criterion percent inhibition of viability < 40%? c1ccc(Cn2c(-c3ccc(OC[C@H](C4CCNCC4)n4c(-c5ccccc5)nc5ccccc54)cc3)nc3ccccc32)cc1 [deltarasin] (max concentration tested 10000 nM)
a: Met

----------
Each entry below lists one item and its recorded drug sensitivity score value.
- Test system: KAI3 (IL-2 2.5 ng/mL)
- assay text: drug sensitivity score (DSS) (DSS units); higher = more sensitive; extreme values may be limits of the assay
- assay context: 72 h
The answer should be written as a number, with no unit following it.

Solved entries:
{"compound": "CO[C@@H](C(=O)N1Cc2[nH]nc(NC(=O)c3ccc(N4CCN(C)CC4)cc3)c2C1)c1ccccc1 [Danusertib] (max concentration tested 10000 nM)", "drug sensitivity score": 10}
{"compound": "Cc1cc([C@@H](C)Nc2ccccc2C(=O)O)c2nc(N3CCOCC3)cc(=O)n2c1 [AZD-6482] (max concentration tested 2500 nM)", "drug sensitivity score": 0}

Proceed to the following item.
q: For the compound shown here, CC(C)NC[C@@H](C(=O)N1CCN(c2ncnc3c2[C@H](C)C[C@H]3O)CC1)c1ccc(Cl)cc1 [GDC-0068] (max concentration tested 10000 nM) , give the reported drug sensitivity score.
a: 0

----------
Each entry below lists one item and its recorded percent inhibition of viability value.
- Test system: YT (IL-2 2.5 ng/mL)
- assay text: percent inhibition of viability; higher = more inhibition
- assay context: 72 h; 0.1 nM
Return type: number; implicit unit %.

Solved entries:
{"molecule": "CO[C@H]1C[C@@H]2CC[C@@H](C)[C@@](O)(O2)C(=O)C(=O)N2CCCC[C@H]2C(=O)O[C@H]([C@H](C)C[C@@H]2CC[C@@H](OCCO)[C@H](OC)C2)CC(=O)[C@H](C)/C=C(\\C)[C@@H](O)[C@@H](OC)C(=O)[C@H](C)C[C@H](C)/C=C/C=C/C=C/1C [Everolimus] (max concentration tested 100 nM)", "value unit": "%", "percent inhibition of viability": -0.65}
{"molecule": "CCN(CC)CCNC(=O)c1c(C)[nH]c(/C=C2\\C(=O)Nc3ccc(F)cc32)c1C [Sunitinib] (max concentration tested 1000 nM)", "value unit": "%", "percent inhibition of viability": -1.95}
{"molecule": "C[C@]12CC[C@@H]3c4ccc(O)cc4C[C@@H](CCCCCCCCC[S+]([O-])CCCC(F)(F)C(F)(F)F)[C@H]3[C@@H]1CC[C@@H]2O (stereo partly specified) [Fulvestrant] (max concentration tested 1000 nM)", "value unit": "%", "percent inhibition of viability": -6.18}

q: For the molecule shown here, Cn1c(Nc2ccc(C(F)(F)F)cc2)nc2cc(Oc3ccnc(-c4ncc(C(F)(F)F)[nH]4)c3)ccc21 [RAF265] (max concentration tested 1000 nM) , give the reported percent inhibition of viability.
a: -4.07

q: For the molecule shown here, C[C@]12O[C@H](C[C@]1(O)CO)n1c3ccccc3c3c4c(c5c6ccccc6n2c5c31)CNC4=O [Lestaurtinib] (max concentration tested 1000 nM) , give the reported percent inhibition of viability.
a: -2.5

q: For the molecule shown here, Cn1c(=O)n(-c2ccc(C(C)(C)C#N)cc2)c2c3cc(-c4cnc5ccccc5c4)ccc3ncc21 [Dactolisib] (max concentration tested 1000 nM) , give the reported percent inhibition of viability.
a: -3.01
